testedTarget: Tyrosyl-tRNA synthetase, putative (Trypanosoma cruzi (strain CL Brener))
Sequence (whole entry): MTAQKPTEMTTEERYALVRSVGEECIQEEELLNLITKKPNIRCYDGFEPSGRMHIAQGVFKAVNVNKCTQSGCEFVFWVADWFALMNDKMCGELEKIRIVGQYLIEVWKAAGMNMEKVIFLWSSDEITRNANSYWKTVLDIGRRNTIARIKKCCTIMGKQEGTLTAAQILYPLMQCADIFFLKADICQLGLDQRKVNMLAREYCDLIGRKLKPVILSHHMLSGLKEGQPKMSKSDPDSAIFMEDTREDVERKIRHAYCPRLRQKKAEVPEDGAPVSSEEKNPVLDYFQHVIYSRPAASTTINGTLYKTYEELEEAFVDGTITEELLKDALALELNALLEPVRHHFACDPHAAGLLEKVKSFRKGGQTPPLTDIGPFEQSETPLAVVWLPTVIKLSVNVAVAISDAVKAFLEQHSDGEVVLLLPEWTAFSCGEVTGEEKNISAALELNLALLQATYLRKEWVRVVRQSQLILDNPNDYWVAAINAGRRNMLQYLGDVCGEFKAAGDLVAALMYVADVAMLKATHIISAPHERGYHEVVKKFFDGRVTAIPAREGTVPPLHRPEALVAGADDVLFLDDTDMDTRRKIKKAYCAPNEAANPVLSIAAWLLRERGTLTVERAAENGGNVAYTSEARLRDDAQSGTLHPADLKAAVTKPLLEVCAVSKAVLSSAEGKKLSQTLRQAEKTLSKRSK
measurementProtocol: Trypanosoma cruzi tyrosyl tRNA synthetase (TcYRS) SOP
Assay type: functional
Design: scale not given: direction of the effect not stated beside the values
measurementSetup: 30 µM
assayReadout: Percent Effect (%)
Dear colleague, please return just the value in %, with no unit written.

Recorded Percent Effect for COc1ccc(CN(C)CC2CCCN2c2cccnn2)cc1F (stereo not drawn) , please? 18.8

Also need Cc1cc(=O)n(CC(=O)NCC2CCCO2)c(-c2cccc(Cl)c2)n1 (stereo not drawn) , thanks. 16.1

Now the same for Nc1nc(CN2CCCC(Cn3cncn3)C2)nc2ccccc12 (stereo not drawn) 6.1
